Test: qHTS Assay for Lipid Storage Modulators in Drosophila S3 Cells
Settings: BODIPY lipid droplet fluorescence, 18-24 h, cells fed with added oleic acid; series mostly up to 46.1 µM
The whole screen tested about 320,000 compounds, of which about 2,100 (0.66%) were called active. Not shown: some 53% with an inconclusive outcome. The call rests on the fitted dose curve; in most records, active means well fitted inhibition curve with a large enough effect in the signal ratio, with a control signal flat (not every such curve was filed as active); inconclusive means small, poorly fitted or top-dose-only effect, or effect the other way, or a change in a side signal; inactive means flat fitted curve, though single readings scatter; the % refers to the signal ratio. This is one part of a sample in which actives are shown more often than they occur.
Classes to choose from: Yes (active), No (inactive)

Smiles code: O=C(C1CCN(S(=O)(=O)N2CCOCC2)CC1)N1CCN(Cc2ccc3c(c2)OCO3)CC1
Class name: No
--
Smiles code: Cc1nnsc1C(=O)N1CCN(c2ccc(F)cc2)CC1
Class name: No

Then this compound:
INPUT: What call does the record list for "CCCCNC(=O)C1CCN(S(=O)(=O)c2cnc[nH]2)CC1" ?
OUTPUT: Yes

###

Test: qHTS Assay for Lipid Storage Modulators in Drosophila S3 Cells; further: potency means the concentration at half of the fitted maximal effect
Conditions: BODIPY lipid droplet fluorescence, 18-24 h, cells fed with added oleic acid; series mostly up to 46.1 µM
The campaign covered roughly 320,000 compounds. About 2,100 (0.66%) were called active. Another 53% or so got no clear call; they are omitted. Shown is part of a subset that was picked to be rich in actives.
Readout label: Potency

Recorded results for 4 compounds are shown here.
Compound: O=C(Nc1cc(Cl)cc(Cl)c1)C1CCCC1
Reported result: 20.6 µM (active)
//
Compound: CCOCCCNC(=O)Cn1cc2c(n1)CCCC2
Reported result: inactive
//
Compound: O=S(=O)(c1ccc2c(c1)N(Cc1ccc(Cl)cc1)C1CCCN21)N1CCOCC1 (configuration not stated)
Reported result: inactive
//
Compound: CCC1CCCCN1C(=O)c1sc2nc(C)nc(N(CC)CC)c2c1C (configuration not stated)
Reported result: inactive

List Potency for every entry below, keeping the order given.
1. CC(C)Oc1ccc(N2CC(C(=O)Nc3ccc(N4CCOCC4)cc3)CC2=O)cc1 (configuration not stated)
2. O=C(CNC(=O)C1CCCCC1)Nc1cc(Cl)cc(Cl)c1
3. CC(NC(=O)c1ccccc1NC(=O)CN1CCN(c2ccccc2O)CC1)c1ccccc1 (configuration not stated)
4. CN1CCCN(C(=O)c2ccccc2Cl)CC1
5. CC(C)Cn1c(CCCNC(=O)c2ccco2)nc2ccccc21
6. CC(=O)Nc1ccc(Nc2nnc(-c3ccc(O)cc3)c3ccccc23)cc1
7. COc1ccc(NS(=O)(=O)c2cccc(C(=O)NCC3(N4CCOCC4)CCCCC3)c2)cc1
8. N#Cc1cncc(-c2ccc3c(c2)OCCOCCOCCOCCOCCO3)n1

OUTPUT:
["inactive", "inactive", "8.2 µM (active)", "inactive", "inactive", "inactive", "inactive", "inactive"]

###

Assay: qHTS Assay for Lipid Storage Modulators in Drosophila S3 Cells;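 on cell number change: cells counted by Cell Tracker Red CMTPX staining in the red channel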
Settings: BODIPY lipid droplet fluorescence, 18-24 h, cells fed with added oleic acid; measured here: cell count max response
Out of some 320,000 compounds screened, about 2,100 (0.66%) were called active. About 53% were inconclusive and are not listed. What follows is part of a selection rich in actives, with near analogues and random picks from the rest.
Give cell number change for every item shown.
Give bare numbers, in %.

Recorded results for 4 compounds are shown here.
Compound: COc1ccc(C(=O)Nc2ccccc2N2CCN(C(=O)c3ccccc3)CC2)cc1Br
Units text: %
cell number change: -6.04
--
Compound: CCOc1ccccc1CN1CCNC(=O)C1CC(=O)NCCc1ccccn1 (centres undefined)
Units text: %
cell number change: -15.8
--
Compound: COc1ccc(CC(=O)Nc2nc(-c3ccc(F)c(F)c3)cs2)cc1
Units text: %
cell number change: 17.2
--
Compound: O=C(COC(=O)CSc1cc(Cl)ccc1Cl)Nc1ncc(C(F)(F)F)cc1Cl
Units text: %
cell number change: 1.5

List cell number change for every entry below, keeping the order given.
1. CCCCn1c(N)c(N(CC)C(=O)c2ccccc2F)c(=O)[nH]c1=O
2. CN1CCN(c2ccccc2NC(=O)c2ccc(-c3ccccc3[N+](=O)[O-])o2)CC1
3. O=C(Nc1ccccc1N1CCN(C(=O)c2ccccc2)CC1)c1cccc(Cl)c1
4. O=[N+]([O-])c1cccc(S(=O)(=O)NCc2ccncc2)c1
5. Cc1cc(Cl)ccc1NC(=S)NCCc1ccc(Cl)cc1
6. O=[N+]([O-])c1ccc(S(=O)(=O)NCCc2ccncc2)cc1
7. CC(OC(=O)Cc1c(F)cccc1Cl)C(=O)NC1CCCCC1C (centres undefined)

OUTPUT:
1. 6.41
2. -10.4
3. -6.81
4. -3.97
5. -20.6
6. 17.1
7. -24.1

List cell number change for every entry below, keeping the order given.
1. CCC(=O)N1CCN(c2ccccc2NC(=O)c2ccc([N+](=O)[O-])o2)CC1
2. O=C(NC(NC(=S)Nc1ccc(Cl)cc1Cl)C(Cl)(Cl)Cl)c1cccc([N+](=O)[O-])c1 (centres undefined)
3. CC(C)C(=O)N1CCN(c2ccccc2NC(=O)c2ccc([N+](=O)[O-])o2)CC1
4. CC(OC(=O)CNC(=O)c1ccc(Cl)cc1)C(=O)NC1CCCCC1C (centres undefined)

OUTPUT:
[-1.26, 12.3, -10.5, 3.37]

List cell number change for every entry below, keeping the order given.
1. O=C(CSc1ccccc1)Nc1nnc(C2CC2)s1
2. Cc1c(Cl)cccc1NC(=O)NCc1ccc(F)cc1

OUTPUT:
[6.15, 3.73]
